- assay-method-text: amyloid nucleation score (Sup35N fusion, yeast selection) (log enrichment); library NNK1; higher = more nucleation; inactive = no reads after selection;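 note: zero at mode of non-aggregating sequences after 7 days selection at 30°C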
Reported values of amyloid nucleation score for individual entries
readout-type: amyloid nucleation score

VRTSYFVAGSGSNAWGGENE    -0.956
IRANLEDVLHIFIPVEGHSR    -0.655
SYFWYCGPSDDYNKPSCSMW    -0.441
EIVVIASRTASPDFIN    1.01
CSWAASY    -0.689
ALLWQECYMP    2.26
PWADVR    0.721
DFFGWTNRNHQNSDSFLWDG    0.69
RQTLEKF    -0.168
EVGHFRSDVDLFWV    -1.04
KRSNSFL    0.319
GWQDSLYLYYFTKFCRNQGG    -0.559
LHRRNSCSIYRLLGFCLLPI    1.25
FIYLVLLSR    1.32
ATVDGRLIRDVSISCMGYDV    -1.12
LWVYSMWVQLTAGFNTVDVM    -0.707
LWGFSISYRKFVVSYGKAP    0.279

----------
- assay-method-text: amyloid nucleation score (Sup35N fusion, yeast selection) (log enrichment); library NNK2; higher = more nucleation; inactive = no reads after selection
Consider the reported amyloid nucleation score of an entry and match it to a band in band 1 (below -0.2), band 2 (-0.2 to below 0.5), band 3 (0.5 or more)

TMDYRTND    band 2
SYKMGEFTTFSLSRICK    band 3
DIDAIYTFRACGDMPSHFRR    band 2
KSLKCFHLVRFTFS    band 1
FLFRKYWLTNRWLFMFKEFA    band 2
NNSWTDLRCVIYMSITGEPH    band 3
VFVERMPVGFHPFRIKIILT    band 3
YCCCVSMFVRTLIARDYNLN    band 3
KVLMLQHPIGYLLNILTMS    band 2
LTVLLSMK    band 1
AWDEINYD    band 2
RRYIMQSWLHATSEFPGCDP    band 3
FDKASLKFCVMLVVRSV    band 2
CFVGTQLSFKVG    band 2
SSYGLVKR    band 3
MIFSEFGAEVIVGWFVVSVG    band 1
DDCKQRTHNDYMD    band 2
FCSDGK    band 2
HNYMLVILHRDSPNLNLGHS    band 3
TMRHQNASWLGVYINSSRKY    band 3
LTYILFGYFMASCFMCFFVS    band 2
WSTFSTFTGYSA    band 1
PARMNLYVCIYV    band 3
DGPNYILQVFCCMMVNVCGC    band 3
ADQSYLRNCIFWRQMILTRY    band 2
CSCGYMKANR    band 1
QVTSCGSWWSRSIWYEVVFS    band 1
LTWSVVRKYSIALRCGGR    band 2
MINYCREIQFRM    band 3
VNSLSGHFFVFFRLLFTTMV    band 1
MFILGVRPMISKSHNVPTQR    band 2
FICVCIVKNKGMGRPCN    band 3
KHLRFASEVNFSARVPPPWL    band 1

----------
- assay-method-text: amyloid nucleation score (Sup35N fusion, yeast selection) (log enrichment); library NNK2; higher = more nucleation; inactive = no reads after selection
readout-type: amyloid nucleation score

FNWDNFSKLVAKNNLVISKL    inactive
FLFYTFRLRVFFLNCNSEDW    -1.97
TDVFCLDKSVQTRILTEVAT    -0.439
RSSRHLDAYIEAS    0.877
LNVKFK    -0.966
DKSCLISVMLICLL    5.21
VFFVHSYND    inactive
CLKFFADGSQAGCSERAGLR    0.041
WIFFHGGRMRTCYRDAVGEV    -0.484

----------
- assay-method-text: amyloid nucleation score (Sup35N fusion, yeast selection) (log enrichment); library NNK2; higher = more nucleation; inactive = no reads after selection
readout-type: amyloid nucleation score

FLCVYDFVVRNIKGIVLRLH    0.294
ARQDYWIRWLTALSMMYGSG    -0.071
EFSIHAGLM    0.222
PGSLSLIINIKCTTAKDRTL    2.79
LVIKCFCA    6.48
CALNFCAEVARFLRMLKSLL    -0.042
MRKMRTMNAQWSWIIVCSFW    0.151
GVTSCLRRPWFKYVILSPRP    1.44
YVIVTDFYYNMVRVVFVRMA    0.228
KILSYASLSAGSFLVQ    -0.531
NSMILDKNRDSTNFVSCFSY    -1.6
TYATNSRRNRNVYLRPHCQI    0.117
VNWGNGVFAGFLWYYVRPCH    -1.03

----------
- assay-method-text: amyloid nucleation score (Sup35N fusion, yeast selection) (log enrichment); library NNK2; higher = more nucleation; inactive = no reads after selection
Reported values of amyloid nucleation score for individual entries
readout-type: amyloid nucleation score

VAKAAHFSLVIMYLFK    0.01
VQIKLRQFTNKAFYTESMST    -0.053
MRVNECCKAEGSQGRLARLV    0.97
TKNACMPRGQGRMAPLRCCL    0.857
YRVCAYLAAKEFDSRHGGDA    0.744
DTFINWIWRGYGKWMCSGRR    -0.135
IYLSTCTYF    0.155
RTVRTAAMLTCGW    0.855
VSQARVLCFMNFGRFLTLNE    5.51
TDSRFLWGSKRNHCVRWCML    -0.242
MLSFHLSVVAETMTWWSTRY    0.857
NFQMTVRYWVKDGVESQEIN    4.19
YWFFCGRWK    4.7
RYNHRFKVVLSHNIDLWQGS    0.689
TFMTAMVVWSVSLGYPLLRR    1.24
CIYVYSLVWM    2.42
PYNLVGLGLFSPAGF    -0.849
LNTVYCN    -1.09
SFWNQKYCA    -0.117
IKVNCIEYYHSLRSRFDTSA    0.065
RIQDLMVLTEGYRRDVIGPG    0.533
EIHGMCTLYIFNSRPYIYPG    6.59
DLGMECTQVGRLDVVWELLI    0.632
NSVDTTCAL    1.04
LCYGFEYHVDGLYNVSYESS    0.298
DLLVCC    1.28
AWMRDLCSVYRCVGCDLLWA    6.25
TRTLRDGVHVGEPLAVYWCC    9.48
NDCRMFRELTYVPHRERC    0.708
RMTSHCMNSLIWQKNHGMRV    -0.348
RFRCTTSSLRGLFWPNTWKK    -0.301
FDVKGRISLNRYSINFNARL    5.11
YDGAIDITTGLFLCFWVCTV    3.96
NVLRCINYYLYYTSGCASSS    -0.169

----------
- assay-method-text: amyloid nucleation score (Sup35N fusion, yeast selection) (log enrichment); library NNK3; higher = more nucleation; inactive = no reads after selection
readout-type: amyloid nucleation score

KYVLSKI    inactive
VNFVSFRP    inactive
LSVMDGTSYAGCELKNVEGW    inactive
IYSLYRCPFAVCLSSNWSCF    1.78
NIVAVRCWFLDFPQDD    inactive
LLVWNLMTRFYYF    inactive
IVCHHRDYFLAYYYEMLHCR    inactive
RIRVSNVCSHQFWLIYGNDT    2.15
SEVRSLKHVGLCIQSMGSAL    inactive

----------
- assay-method-text: amyloid nucleation score (Sup35N fusion, yeast selection) (log enrichment); library NNK1; higher = more nucleation; inactive = no reads after selection
readout-type: amyloid nucleation score

TRTAGRSVCPVIQLMSWAAY    0.277
ISRGDVGVKESSGCNCVLPH    -0.587
EHHGGISGGNKCCSTCKSRR    0.361
LPDIGCFPRTIGCMTQAECG    -0.381
KKRPPAPSMEVRLGARMVAG    0.324
MPIEYG    -0.27
LIVMVKV    0.111
SKSGLGYTGHLLVREREVVV    0.474
RGISYLV    -0.212
SCLVWLFRCFFRTYQYYEFI    0.253
PMVTSSCFRCTLLCSQFWQF    0.444
YGEHMLVDRCMRWVSSFYRG    1.62
IGIGWATSLCLDRDLFVTSG    0.029
IVRQYANLGRCCRTGVVYFQ    0.386
YVLLGFNYKTFYMSVGLDRE    -0.005
DERNACLSSFGVNLRLIKLS    -0.002
LAWTSRDWRKFEYIMGIWGI    -1.01
LNSGASMLWQTLSYPMSRVR    -0.506
AQSALLKS    -1.22
SCETVWYVFNSAIACFTFRR    4.18
MLGDAIMGM    1.09
LCRVVGYRSPHWQVRGLSVV    -0.215
NVTIVGS    1.02
FFFKAFDLATTSLGRYNMCN    -0.66
LARLLNGQVGNDYCPGVPGG    -0.543
VLFLHSS    0.355
VKRRLSHYAHMDGFVCNIR    0.286
LFRSRRLVCDMKFHWTFLYR    -0.853
VKYGTLYEGRNDLIDVR    0.635
IISRLCLQLPATRT    1.21
NIVIIVVSNLN    3.44
VKTISCYMWFNVFN    7.81
GNFKAMWFYPYRRCWQCT    -0.944
HFASRLMRKEFAVRFLRGFS    -0.608
